Recorded loss of binding vs wild type for the following binders
Molecular target: T1, hiR2-FL-T544P-T7 (human, UniProt Q6PJF5 1-856)
T1 sequence: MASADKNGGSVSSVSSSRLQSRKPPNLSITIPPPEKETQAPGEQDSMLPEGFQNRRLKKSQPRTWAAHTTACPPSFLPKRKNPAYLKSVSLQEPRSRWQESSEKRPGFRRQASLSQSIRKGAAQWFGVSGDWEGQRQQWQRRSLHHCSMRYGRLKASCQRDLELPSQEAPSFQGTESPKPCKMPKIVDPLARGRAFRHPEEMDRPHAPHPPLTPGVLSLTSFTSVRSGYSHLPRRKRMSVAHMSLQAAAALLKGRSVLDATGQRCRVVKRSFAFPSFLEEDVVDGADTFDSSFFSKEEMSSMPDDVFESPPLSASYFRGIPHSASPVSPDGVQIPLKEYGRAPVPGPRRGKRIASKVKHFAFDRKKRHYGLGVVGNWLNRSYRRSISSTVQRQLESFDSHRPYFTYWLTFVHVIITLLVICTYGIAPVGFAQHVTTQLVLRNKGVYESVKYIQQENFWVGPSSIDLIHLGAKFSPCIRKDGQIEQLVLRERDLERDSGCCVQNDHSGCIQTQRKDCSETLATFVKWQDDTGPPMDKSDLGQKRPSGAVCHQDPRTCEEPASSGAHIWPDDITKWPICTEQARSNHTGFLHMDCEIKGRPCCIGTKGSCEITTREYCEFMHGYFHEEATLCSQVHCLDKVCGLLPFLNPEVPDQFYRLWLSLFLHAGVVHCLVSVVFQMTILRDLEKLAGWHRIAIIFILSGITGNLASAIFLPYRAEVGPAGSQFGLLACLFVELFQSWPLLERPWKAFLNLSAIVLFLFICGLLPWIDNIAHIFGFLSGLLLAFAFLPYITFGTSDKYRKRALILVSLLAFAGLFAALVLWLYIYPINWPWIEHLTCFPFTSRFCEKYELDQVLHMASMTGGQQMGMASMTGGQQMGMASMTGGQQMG
Experiment: FACS, MEF-DKO cells, 3 µg/ml
Measurement name: loss of binding vs wild type

Binder | Measurement name | Endpoint value
antibody 34 (antibody, V domains shown, mouse IgG, kappa light chain; also called clone #34; purified antibody 34) VH: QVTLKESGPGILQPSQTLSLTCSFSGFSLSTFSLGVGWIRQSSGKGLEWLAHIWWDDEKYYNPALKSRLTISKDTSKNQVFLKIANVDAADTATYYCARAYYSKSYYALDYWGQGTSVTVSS VL: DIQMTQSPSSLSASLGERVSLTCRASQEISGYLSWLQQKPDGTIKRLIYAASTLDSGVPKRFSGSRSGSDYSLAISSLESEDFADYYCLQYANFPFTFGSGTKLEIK | loss of binding vs wild type | ≥ 60%
antibody 50 (antibody, V domains shown, mouse IgG, kappa light chain; also called clone #50; purified antibody 50) VH: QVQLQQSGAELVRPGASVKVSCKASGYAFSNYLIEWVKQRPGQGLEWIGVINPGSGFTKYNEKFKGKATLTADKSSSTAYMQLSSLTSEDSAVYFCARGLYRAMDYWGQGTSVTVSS VL: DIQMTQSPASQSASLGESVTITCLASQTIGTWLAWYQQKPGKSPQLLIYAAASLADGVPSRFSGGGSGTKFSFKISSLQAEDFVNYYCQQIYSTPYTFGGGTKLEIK | loss of binding vs wild type | ≥ 30%
